Attribute: TGI
Tested on: SW-620 colon
protocol-notes: NCI tumour cell line growth inhibition, 48 h

Reference set, count: 10
molecule: COc1cc(-c2cc(C(=O)N3CCN(C(=O)c4ccccc4NCc4cccs4)CC3)nc3cc(-c4ccccc4)nn23)cc(OC)c1OC
assay-target: SW-620 colon
TGI: > 100 µM
--
molecule: CC1(C)C/C=C\CCC(O)C(O)CCC(C)(C)C1=O (stereo unspecified)
assay-target: SW-620 colon
TGI: > 100 µM
--
molecule: COc1ccc(-c2c(C#N)c(N)n(C3OC(COC(C)=O)C(OC(C)=O)C(OC(C)=O)C3OC(C)=O)c(=S)c2C#N)cc1 (stereo unspecified)
assay-target: SW-620 colon
TGI: > 100 µM
--
molecule: CC(=O)Nc1ccc(C(=O)NN2C(=O)C(Cl)C2/C=C/c2ccccc2)cc1 (stereo unspecified)
assay-target: SW-620 colon
TGI: > 100 µM
--
molecule: Cc1cccc2c1CC1(Cc3c(C)cccc3C1=O)C2=O
assay-target: SW-620 colon
TGI: > 100 µM
--
molecule: O=c1c(Br)ccc(Br)cc1Br
assay-target: SW-620 colon
TGI: 0.673 µM
--
molecule: COc1ccc(-c2cc(-c3ccncc3)nc(N)c2-c2ccc(F)cc2)cc1
assay-target: SW-620 colon
TGI: > 100 µM
--
molecule: Cc1cc2c(C=O)[nH]nc2c(C#N)c1C
assay-target: SW-620 colon
TGI: > 100 µM
--
molecule: CN(CC(=O)O)Cc1c[nH]c2ccccc12
assay-target: SW-620 colon
TGI: > 100 µM
--
molecule: CCC1(O)CC(c2ccccc2)N(C)C(c2ccccc2)C1 (stereo unspecified)
assay-target: SW-620 colon
TGI: > 100 µM

Below: the item to evaluate.
Respond only with TGI recorded for CSc1nc(NC2OC(CO)C(O)C(O)C2O)c(N)c(=O)[nH]1 (stereo unspecified)
> 100 µM

---

Attribute: TGI
Tested on: HS 578T breast
protocol-notes: NCI tumour cell line growth inhibition, 48 h
Kindly answer with a numeric value in µM, unit omitted.

compound: O=C1COCCN1c1ccc(NCc2cn(Cc3ccc(F)cc3)c3ccccc23)cc1
assay-target: HS 578T breast
value-units: µM
TGI: 44.1

Respond only with TGI recorded for `N=C(N)c1ccc(-c2ccc(-c3ccccc3)o2)o1`
21.2

Respond only with TGI recorded for `CC(=O)O[C@H]1CC[C@@]2(C)[C@@H](CC[C@@H]3[C@@H]2CC(=O)[C@@]2(C)[C@H]3C[C@@H]3CC(C)=CC(=O)[C@@H]32)C1`
80.3

Respond only with TGI recorded for `C[C@@H](Br)[C@@H]1CC[C@H]2c3[nH]c4ccccc4c3CCN2C1`
33.9

---

Attribute: TGI
Tested on: HCT-15 colon
protocol-notes: NCI tumour cell line growth inhibition, 48 h

Reference set, count: 3
compound: CCn1cc(C(=O)O)c(=O)c2cc(F)c(N3CCNCC3)nc21
assay-target: HCT-15 colon
TGI: > 100 µM
//
compound: O=[N+]([O-])C(=C(\Cl)NCCO)/C(Cl)=C(/Cl)Br
assay-target: HCT-15 colon
TGI: 2.78 µM
//
compound: COc1nc(C(Cl)(Cl)Cl)c(Cl)c(OC)c1Cl
assay-target: HCT-15 colon
TGI: 75.6 µM

Respond only with TGI recorded for `Cc1ccc(Sc2cc([N+](=O)[O-])cc(Sc3ccc(C)cc3)c2Sc2ccc(C)cc2)cc1`
> 100 µM

Respond only with TGI recorded for O=C1CCCC1C(O)(C(F)(F)Cl)C(F)(F)Cl (stereo unspecified)
> 10 µM

Respond only with TGI recorded for `COc1cccc(/C=N/[N-]C(N)=O)c1[O-].[Cu+2].c1ccncc1`
> 100 µM

Respond only with TGI recorded for `O=C(Nc1ccccn1)c1cc2c(cc1Cl)Sc1nccn1S2(=O)=O`
> 100 µM

Respond only with TGI recorded for `COc1ccc(OC/C(N=Cc2cccnc2)=N/NC(=O)c2ccncc2)cc1`
> 100 µM

---

System: UACC-62 melanoma
protocol-notes: NCI tumour cell line growth inhibition, 48 h
Attribute: TGI

compound: CN(C)CCNc1nc2c(c(=O)n(C)c(=O)n2C)n1C
TGI: > 100 µM

Respond only with TGI recorded for `Nc1[nH]nc2c1Cc1c(n(Cc3ccc(Cl)cc3)c3ccccc13)C(=O)N2`
> 100 µM

Respond only with TGI recorded for `COc1ccc(-n2cc(-c3ccc(F)cc3)[nH]c2=O)cc1OC`
> 100 µM

Respond only with TGI recorded for `COc1cc(-c2nc3cc(Cl)c(Cl)cc3[nH]2)ccc1OCC(=O)N=Nc1c(O)[nH]c2ccccc12`
2.75 µM

Respond only with TGI recorded for C=CCOC1=C(OC(C)=O)C(C2COC(C)(C)O2)OC1=O (stereo not given)
68.2 µM

---

Tested on: NCI-H460 lung
Could you please pick one outcome from this set? class 1 (active), class 0 (inactive)

For orientation, consider the following solved cases.
smiles-text: O=c1c(-c2nc3ccccc3[nH]2)cc2ccccc2n1Cc1cn(Cc2ccc(F)cc2)nn1
discrete-label: class 1
//
smiles-text: COc1cc(-c2nc3cc(Cl)c(Cl)cc3[nH]2)ccc1OCC(=O)N=Nc1c(O)[nH]c2ccccc12
discrete-label: class 1
//
smiles-text: Clc1ccc2c(NCCCNCc3ccc4c(c3)OCO4)ccnc2c1
discrete-label: class 0

Could you please tell me the result logged for `COc1ccc(-c2nn(C(=O)c3cc(OC)c(OC)c(OC)c3)c3cc(N)ccc23)cc1` in this assay?
class 1

Could you please tell me the result logged for `COc1cc2c(cc1OC)-c1c(c3ccc([N+](=O)[O-])cc3c(=O)n1CCCBr)C2=O` in this assay?
class 0

Could you please tell me the result logged for `O=[N+]([O-])c1ccc(N/N=C\c2ccc(O)cc2O)nc1` in this assay?
class 0

---

Test system: SK-OV-3 ovarian
protocol-notes: NCI tumour cell line growth inhibition, 48 h
Attribute: TGI

molecule: CC(=O)Nc1ccc(C(=O)NN2C(=O)C(Cl)C2/C=C/c2ccccc2)cc1 (stereo unspecified)
TGI: > 100 µM

Using SK-OV-3 ovarian as the test system, report measured TGI of `c1ccc2c(CCNC3=NCCO3)cccc2c1` .
> 10 µM

Using SK-OV-3 ovarian as the test system, report measured TGI of `CSc1c(C#N)c(=O)n(N)c2n[nH]c(C)c12` .
> 100 µM

Using SK-OV-3 ovarian as the test system, report measured TGI of `CN(C)CCNc1nc2c(c(=O)n(C)c(=O)n2C)n1C` .
> 100 µM

Using SK-OV-3 ovarian as the test system, report measured TGI of `COc1cc(Nc2nccc(-c3cnn4ncccc34)n2)cc(OC)c1` .
9.84 µM

Using SK-OV-3 ovarian as the test system, report measured TGI of FC1(F)SC2CCCCCCCCCCC2C1(F)F (stereo unspecified) .
> 100 µM

Using SK-OV-3 ovarian as the test system, report measured TGI of CC(=O)Oc1ccc(C2SCc3nc4ccccc4n32)cc1 (stereo unspecified) .
95.3 µM

Using SK-OV-3 ovarian as the test system, report measured TGI of `CNC(=S)c1nnsc1N` .
> 100 µM

---

System: MDA-MB-231 breast
protocol-notes: NCI tumour cell line growth inhibition, 48 h; in the data active means GI50 below about 0.43 µM; inactive means the rest
Could you please pick one outcome from this set? true (active), false (inactive)

For orientation, consider the following solved cases.
molecule: COc1cc(Nc2nccc(-c3cnn4ncccc34)n2)cc(OC)c1
discrete-label: true
--
molecule: C/C(=N\O)c1ccc(Nc2cc(-c3ccccc3)nc3c(O)cccc23)cc1
discrete-label: false
--
molecule: c1ccc(Oc2cnc3ccccc3n2)cc1
discrete-label: false
--
molecule: Cc1nc(N(C)C)nc(-c2cccc(-c3ccn(CCN(C)C)n3)c2)c1C
discrete-label: false
--
molecule: COc1cc(/C=C/C(=O)c2ccc(SC)cc2)cc(OC)c1OC
discrete-label: false

Could you please tell me the result logged for COc1cc(/C=C2\CCCC3=C2N=C2SC=NN2C3c2cc(OC)c(OC)c(OC)c2)cc(OC)c1OC (configuration not stated) in this assay?
false

Could you please tell me the result logged for `COC(=O)/C=C/c1cc(OC)c2c(c1)[C@@H](C(=O)OC)[C@H](c1ccc(OC)c(OC)c1)O2` in this assay?
false

Could you please tell me the result logged for `COc1cc(Cl)c(C)cc1NC(=O)c1cc2ccccc2cc1O` in this assay?
false

Could you please tell me the result logged for `Clc1ccc2c(NCCCNCc3ccc4c(c3)OCO4)ccnc2c1` in this assay?
false

Could you please tell me the result logged for `COc1ccc2c(c1)cn1c3ccc(OC)cc3[nH]c(=O)c21` in this assay?
true

Could you please tell me the result logged for `O=[N+]([O-])c1ccc(N/N=C\c2ccc(O)cc2O)nc1` in this assay?
false

Could you please tell me the result logged for `COc1ccc(-c2nn(C(=O)c3cc(OC)c(OC)c(OC)c3)c3cc(N)ccc23)cc1` in this assay?
true

Could you please tell me the result logged for OC(c1cc2c(Cl)cc(Cl)cc2c2cc(C(F)(F)F)ccc12)C1CCCCN1 (configuration not stated) in this assay?
false

Could you please tell me the result logged for `CCc1cc(Cc2cc(CC)cc(C(C)(C)C)c2O)c(O)c(C(C)(C)C)c1` in this assay?
false

Could you please tell me the result logged for `Cc1cnc2n(c1=O)Cc1ccccc1CO2` in this assay?
false

Could you please tell me the result logged for `Nc1nc(-c2ccccc2Cl)cc(-c2ccc(Cl)cc2Cl)n1` in this assay?
false

Could you please tell me the result logged for `N=C(N)c1ccc(-c2ccc(-c3ccccc3)o2)o1` in this assay?
false
